- tgt: STAT6 (Homo sapiens)
- Construct: stably transfected HaCaT keratinocyte cell line, which expresses NanoLuc luciferase reporter gene under the transcriptional control of the STAT6 responsive promoter; endogenous in cells; host or cells: HaCaT keratinocyte reporter cell line (stably transfected with a NanoLuc reporter)
- Sequence (P42226 1-847): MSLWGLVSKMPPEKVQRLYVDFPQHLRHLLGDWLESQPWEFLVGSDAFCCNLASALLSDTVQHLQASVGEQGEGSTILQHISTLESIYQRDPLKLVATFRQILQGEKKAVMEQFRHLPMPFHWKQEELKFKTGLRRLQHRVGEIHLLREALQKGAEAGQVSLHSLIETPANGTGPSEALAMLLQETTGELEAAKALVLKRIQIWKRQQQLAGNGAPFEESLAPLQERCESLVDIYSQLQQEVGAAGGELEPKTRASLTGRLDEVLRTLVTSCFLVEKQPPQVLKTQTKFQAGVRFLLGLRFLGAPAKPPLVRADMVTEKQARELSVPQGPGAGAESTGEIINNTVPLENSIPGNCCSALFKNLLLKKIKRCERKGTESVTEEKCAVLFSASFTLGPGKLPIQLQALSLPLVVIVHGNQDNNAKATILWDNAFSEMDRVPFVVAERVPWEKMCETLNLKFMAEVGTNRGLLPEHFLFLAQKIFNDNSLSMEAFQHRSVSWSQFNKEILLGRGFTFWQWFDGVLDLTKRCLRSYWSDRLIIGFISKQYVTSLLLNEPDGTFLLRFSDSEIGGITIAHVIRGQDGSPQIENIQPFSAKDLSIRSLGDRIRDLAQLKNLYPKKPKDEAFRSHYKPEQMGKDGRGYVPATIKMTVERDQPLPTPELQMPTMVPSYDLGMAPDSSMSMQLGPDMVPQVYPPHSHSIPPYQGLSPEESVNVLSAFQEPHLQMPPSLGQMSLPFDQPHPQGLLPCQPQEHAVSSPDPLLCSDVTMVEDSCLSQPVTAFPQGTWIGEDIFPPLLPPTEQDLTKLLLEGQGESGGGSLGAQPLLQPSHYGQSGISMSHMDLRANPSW
- assay: STAT6 Reporter Luciferase Assay (IL-13 stimulated HaCaT keratinocyte NanoLuc reporter cells)
- Assay type: cell-based
- condition.context: IL-13 stimulated HaCaT STAT6 NanoLuc reporter cells; read-out: Reporter EC50
- Text: Pharmacological measurements of STAT6 transcriptional activity through the IL-13-IL-13 receptor/IL-4 receptor pathway were made with a stably transfected HaCaT keratinocyte cell line, which expresses NanoLuc luciferase reporter gene under the transcriptional control of the STAT6 responsive promoter for IL-13Ra2. The readout of the STAT6 activity utilized Promega Nano-Glo Luciferase assay kit. […]
pEC50: −log10 of the molar value.
Param threshold (8) applies to pEC50; output Condition met when value >= threshold, Condition not met when value < threshold.

Inquiry: Given the entry CC(C)n1nc(C(=O)NCc2ccc(NC(=O)N(C)C)cc2)c2c1CCN(c1ccc(C(=O)N3CCCNC(=O)C3)cn1)C2 [Example 221] , answer whether its pEC50 meets or surpasses 8.
Reply text: Condition not met

----------
Reported EC50 values follow for various compounds
- tgt: STAT6 (Homo sapiens, UniProt P42226)
- Construct: stably transfected HaCaT keratinocyte cell line, which expresses NanoLuc luciferase reporter gene under the transcriptional control of the STAT6 responsive promoter; endogenous in cells; host or cells: HaCaT keratinocyte reporter cell line (stably transfected with a NanoLuc reporter)
- Sequence (P42226 1-847): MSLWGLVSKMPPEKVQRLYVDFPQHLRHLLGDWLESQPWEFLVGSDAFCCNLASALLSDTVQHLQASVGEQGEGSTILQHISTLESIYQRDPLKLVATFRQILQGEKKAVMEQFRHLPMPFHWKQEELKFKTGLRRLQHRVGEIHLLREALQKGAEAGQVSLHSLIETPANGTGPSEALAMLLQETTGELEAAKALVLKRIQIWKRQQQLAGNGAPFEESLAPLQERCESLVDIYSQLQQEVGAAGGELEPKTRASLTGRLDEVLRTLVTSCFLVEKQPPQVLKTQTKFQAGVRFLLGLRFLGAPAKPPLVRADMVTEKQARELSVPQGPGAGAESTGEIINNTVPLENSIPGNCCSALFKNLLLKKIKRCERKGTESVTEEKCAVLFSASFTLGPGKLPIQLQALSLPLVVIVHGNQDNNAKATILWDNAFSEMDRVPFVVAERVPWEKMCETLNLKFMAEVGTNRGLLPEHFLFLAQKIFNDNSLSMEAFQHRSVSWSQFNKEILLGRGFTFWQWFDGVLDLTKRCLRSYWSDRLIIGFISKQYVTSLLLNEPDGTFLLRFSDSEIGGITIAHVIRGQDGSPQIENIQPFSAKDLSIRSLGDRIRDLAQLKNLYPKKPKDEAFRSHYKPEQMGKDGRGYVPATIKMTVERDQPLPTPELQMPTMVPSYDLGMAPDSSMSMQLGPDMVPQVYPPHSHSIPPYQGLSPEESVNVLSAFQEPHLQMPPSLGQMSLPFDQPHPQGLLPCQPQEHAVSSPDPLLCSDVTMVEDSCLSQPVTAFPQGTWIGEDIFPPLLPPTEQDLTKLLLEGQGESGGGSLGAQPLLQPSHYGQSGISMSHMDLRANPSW
- assay: STAT6 Reporter Luciferase Assay (IL-13 stimulated HaCaT keratinocyte NanoLuc reporter cells)
- Format: cell-based
- condition.context: IL-13 stimulated HaCaT STAT6 NanoLuc reporter cells; read-out: Reporter EC50
The answer should read as a number with its unit following.

Previously resolved entries follow.
compound | EC50
CNC(=O)Nc1ccc(CNC(=O)c2nn(C(C)C)c3c2CN(c2ncc(N4CCCC4=O)cn2)C[C@@H]3C)cc1 | 1 nM
CC(C)n1nc(C(=O)NCc2ccc(C(=O)NCC3CCN(C)CC3)cc2)c2c1[C@@H](C)CN(c1ccc(C(=O)N(C)C)cc1)C2 | 178 nM
CC(=O)N1[C@H](C)CN(C(=O)c2ccc(N3CCc4c(c(C(=O)NCc5ccc(NC(=O)N(C)C)cc5)nn4C(C)C)C3)nc2)C[C@@H]1C | 241 nM
COc1ccnc2c1CCN(C(=O)c1ccc(N3CCc4c(c(C(=O)NCc5ccc(NC(=O)N(C)C)cc5)nn4C(C)C)C3)nc1)C2 | 10 nM
CC1CN(c2ccc(-c3nccn3C)cn2)Cc2c(C(=O)NCc3ccc(NC(=O)N(C)C)cc3)nn(C)c21 (single isomer, unassigned) [Example 203] | 1 nM

Lab note: next compound to report on.
Inquiry: Which EC50 value is on record for CCn1nc(C(=O)NCc2ccc(C(=O)NC)cc2)c2c1C(C(F)(F)F)CN(c1ccc(C(=O)N(C)C)cn1)C2 (racemic) [Example 463] ?
Reply text: 2.7 nM

Source of measurements: patent US20250320213A1
